Origin of measurements: ChEMBL document CHEMBL4118030

- System: U2OS
- Assay method text: Antiproliferative activity against human U2OS cells after 48 hrs by MTT assay
- Assay type: functional, cell-based
Form field: pIC50 (one value per entry).
For clarity, pIC50 is expressed as the negative log10 of concentration in mol/L.

Answered examples (2):
1. CC(=O)NC1=CC(=O)c2cc(O[C@@H]3O[C@@H](C)[C@@H](O)[C@@H](O)[C@H]3O)c(C)cc2C1=O :: 4.47
2. COc1cccc2c1C(=O)c1c(O)c3c(c(O)c1C2=O)C[C@@](O)(C(=O)CO)C[C@@H]3O[C@H]1C[C@H](N)[C@H](O)[C@H](C)O1 :: 6.25

Prompt: Write down the reported pIC50 of C/C=C(\C)[C@H](O)[C@H](C)/C=C(C)/C=C/C/C(C)=C/Cc1nc(OC)c(OC)c(O)c1C , test system: U2OS.
Response: 4.04

Prompt: I'm curious: which pIC50 was measured for C/C=C(\C)[C@H](O)[C@H](C)/C=C(C)/C=C/C/C(C)=C/Cc1nc(OC)c(OC)c(O[C@@H]2O[C@@H](C)[C@@H](O)[C@@H](O)[C@H]2O)c1C tested on U2OS?
Response: 4.53

Prompt: Can you look up pIC50 on U2OS for C/C1=C/C=C\C=C\[C@H](C)[C@@H](O)CC(=O)/C(C)=C/C[C@H](O)/C=C/[C@H](C)[C@H](O)[C@@H](C)/C=C(\C)C(=O)c2c(O)c(C)cc3c2C(=O)C(Cl)=C(NC1=O)C3=O ?
Response: 4.69

###

- Tested on: HL-60
- Assay method text: Antiproliferative activity against human HL60 cells after 48 hrs by EZ-Cytox cell viability assay
- Assay type: functional, cell-based
- Study conditions: HL-60, 48 h
Parameter: pIC50. Scope: all listed entries.
Scale: pIC50 equals -log10([C]), with [C] in mol/L.

Prompt: So what's the measured pIC50 for this one? C/C1=C/C=C\C=C\[C@H](C)[C@@H](O)CC(=O)/C(C)=C/C[C@H](O)/C=C/[C@H](C)[C@H](O)[C@@H](C)/C=C(\C)C(=O)c2c(O)c(C)cc3c2C(=O)C(Cl)=C(NC1=O)C3=O
Response: 5.68

Prompt: Using the record for C/C=C(\C)[C@H](O)[C@H](C)/C=C(C)/C=C/C/C(C)=C/Cc1nc(OC)c(OC)c(O)c1C , report its pIC50.
Response: 4.09

Prompt: Any idea what pIC50 was measured for C/C=C(\C)[C@H](O)[C@H](C)/C=C(C)/C=C/C/C(C)=C/Cc1nc(OC)c(OC)c(O[C@@H]2O[C@@H](C)[C@@H](O)[C@@H](O)[C@H]2O)c1C ?
Response: 4.61

Prompt: Can you share its pIC50? I mean this compound: CC(=O)NC1=CC(=O)c2cc(O[C@@H]3O[C@@H](C)[C@@H](O)[C@@H](O)[C@H]3O)c(C)cc2C1=O
Response: 5.15

Prompt: What value of pIC50 has been reported for the following compound? C/C(=C\[C@H](C)[C@@H](O)[C@@H](C)/C=C/[C@@H](O)C/C=C(\C)C(=O)C[C@H](O)[C@@H](C)/C=C/C=C\C=C/C(=O)NC1=C(Cl)C(=O)c2cc(O)c(C)cc2C1=O)C(=O)O
Response: 4.37

Prompt: May I ask what pIC50 has been recorded for C/C(=C\[C@H](C)[C@@H](O)[C@@H](C)/C=C/[C@@H](O)C/C=C(\C)C(=O)C[C@H](O)[C@@H](C)/C=C/C=C\C=C/C(=O)Nc1c(Cl)c(O[C@@H]2O[C@@H](C)[C@@H](O)[C@@H](O)[C@H]2O)c2cc(O)c(C)cc2c1O)C(=O)O ?
Response: 4.04

Prompt: Look up pIC50 for this compound: COc1cccc2c1C(=O)c1c(O)c3c(c(O)c1C2=O)C[C@@](O)(C(=O)CO)C[C@@H]3O[C@H]1C[C@H](N)[C@H](O)[C@H](C)O1
Response: 6.27

###

The compounds listed here are annotated with their IC50.
- Tested on: U2OS
- Assay method text: Antiproliferative activity against human U2OS cells after 48 hrs by MTT assay
- Format: functional, cell-based

Look over these answered cases.
1. C/C(=C\[C@H](C)[C@@H](O)[C@@H](C)/C=C/[C@@H](O)C/C=C(\C)C(=O)C[C@H](O)[C@@H](C)/C=C/C=C\C=C/C(=O)Nc1c(Cl)c(O[C@@H]2O[C@@H](C)[C@@H](O)[C@@H](O)[C@H]2O)c2cc(O)c(C)cc2c1O)C(=O)O :: > 100 µM
2. CNc1ccccc1C(=O)O[C@@H]1O[C@@H](C)[C@@H](O)[C@@H](O)[C@H]1O :: > 100 µM

Next:
Prompt: Need IC50 of C/C(=C\[C@H](C)[C@@H](O)[C@@H](C)/C=C/[C@@H](O)C/C=C(\C)C(=O)C[C@H](O)[C@@H](C)/C=C/C=C\C=C/C(=O)NC1=C(Cl)C(=O)c2cc(O)c(C)cc2C1=O)C(=O)O , thanks.
Response: > 100 µM
